Just for reference, PubChem BioAssay AID1963868 is where these values come from.

Recorded viability, T/C, one value per entry.
Test system: KRAS PDC tumor spheroids (HUVEC+MSC), viability
EXPERIMENT_NOTES: Anticancer human tumor 254851-301-R-J1-PDC patient-derived colon carcinoma cell line growth inhibition [KRAS2]
REPORTED_CONDITIONS: second compound 0.1 µM; first compound 0.00316 µM; stronger effect = lower value

These solved cases illustrate the format of a correct answer.
MOLECULE	ASSAY_RESULT
CN(C)C/C=C/C(=O)Nc1cc2c(Nc3ccc(F)c(Cl)c3)ncnc2cc1O[C@H]1CCOC1 + C=CC(=O)N1CCN(c2nc(=O)n(-c3c(C)ccnc3C(C)C)c3nc(-c4c(O)cccc4F)c(F)cc23)C(C)C1	99.5%
CC(=O)Nc1cccc(-n2c(=O)n(C3CC3)c(=O)c3c(Nc4ccc(I)cc4F)n(C)c(=O)c(C)c32)c1 + C=CC(=O)N1CCN(c2nc(OCC3CCCN3C)nc3c2CCN(c2cccc4cccc(C)c24)C3)CC1CC#N	77.9%
Cn1ncnc1[C@H]1c2n[nH]c(=O)c3cc(F)cc(c23)N[C@@H]1c1ccc(F)cc1 + C=CC(=O)N1CCN(c2nc(OCC3CCCN3C)nc3c2CCN(c2cccc4cccc(C)c24)C3)CC1CC#N	98.5%
CC(C)n1nc(-c2ccc3oc(N)nc3c2)c2c(N)ncnc21 + CC1OCC2(CCN(c3cnc(Sc4ccnc(N)c4Cl)c(N)n3)CC2)C1N	89.3%

Now let's try a different one.
Task: Param item = CCN1CCN(Cc2ccc(Nc3ncc(F)c(-c4cc(F)c5nc(C)n(C(C)C)c5c4)n3)nc2)CC1 + CC1OCC2(CCN(c3cnc(Sc4ccnc(N)c4Cl)c(N)n3)CC2)C1N ; retrieve measured viability, T/C.
Output: 94.5%

* * *

Test system: KRAS PDC tumor spheroids (HUVEC+MSC), viability
EXPERIMENT_NOTES: Anticancer human tumor 254851-301-R-J1-PDC cell line growth inhibition [KRAS2]; active means viability on the fitted dose curve at most 10% of control; inactive means the rest;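 also: spheroids exposed to compounds for seven days before readout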
REPORTED_CONDITIONS: second compound 0.316 µM; first compound 0.0316 µM
Pick one and only one: active, inactive

Answered cases to consult:
COMPOUND	ASSIGNED_CLASS
CC(C)NCC(C(=O)N1CCN(c2ncnc3c2C(C)CC3O)CC1)c1ccc(Cl)cc1 (stereo unspecified) + CNCc1ccccc1-c1csc(C(C)Nc2nc(C)nc3cc(OC)c(OC)cc23)c1	inactive
O=C(c1cc(Cc2n[nH]c(=O)c3ccccc23)ccc1F)N1CCN(C(=O)C2CC2)CC1 + C=CC(=O)N1CCN(c2nc(=O)n(-c3c(C)ccnc3C(C)C)c3nc(-c4c(O)cccc4F)c(F)cc23)C(C)C1	inactive
CC1COCCN1c1cc(-c2ccnn2C)c2ccnc(-c3ccn[nH]3)c2n1 (stereo unspecified) + CNCc1ccccc1-c1csc(C(C)Nc2nc(C)nc3cc(OC)c(OC)cc23)c1	inactive
CC(C)n1nc(-c2ccc3oc(N)nc3c2)c2c(N)ncnc21 + C=CC(=O)N1CCN(c2nc(OCC3CCCN3C)nc3c2CCN(c2cccc4cccc(C)c24)C3)CC1CC#N	inactive
COc1cc2nccc(Oc3ccc(NC(=O)C4(C(=O)Nc5ccc(F)cc5)CC4)cc3)c2cc1OC + C=CC(=O)N1CCN(c2nc(=O)n(-c3c(C)ccnc3C(C)C)c3nc(-c4c(O)cccc4F)c(F)cc23)C(C)C1	inactive

Here is another compound to look at.
Task: Which outcome was assigned to CN(C)C/C=C/C(=O)Nc1cc2c(Nc3ccc(F)c(Cl)c3)ncnc2cc1O[C@H]1CCOC1 + C=CC(=O)N1CCN(c2nc(=O)n(-c3c(C)ccnc3C(C)C)c3nc(-c4c(O)cccc4F)c(F)cc23)C(C)C1 in this test?
Output: inactive

* * *

System: KRAS PDC tumor spheroids (HUVEC+MSC), viability
EXPERIMENT_NOTES: Anticancer human tumor 254851-301-R-J1-PDC cell line growth inhibition [KRAS2];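 also: spheroids exposed to compounds for seven days before readout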;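 as to viability, T/C: 100% = DMSO vehicle control luminescence of the spheroids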
REPORTED_CONDITIONS: second compound 0.316 µM; first compound 0.000316 µM; stronger effect = lower value
MEASURED_ENDPOINT: viability, T/C (%)
Value expressed in %; do not type the unit.

MOLECULE	ASSAY_RESULT
Cn1ncnc1[C@H]1c2n[nH]c(=O)c3cc(F)cc(c23)N[C@@H]1c1ccc(F)cc1 + CNCc1ccccc1-c1csc(C(C)Nc2nc(C)nc3cc(OC)c(OC)cc23)c1	90.6

Task: Param item = Cn1ncnc1[C@H]1c2n[nH]c(=O)c3cc(F)cc(c23)N[C@@H]1c1ccc(F)cc1 + COc1cc2nc(C)nc(NC(C)c3cc(N)cc(C(F)(F)F)c3)c2cc1OC1CCOC1 ; retrieve measured viability, T/C.
Output: 95.9

Task: Cool, now CN(C)C/C=C/C(=O)Nc1cc2c(Nc3ccc(F)c(Cl)c3)ncnc2cc1O[C@H]1CCOC1 + C=CC(=O)N1CCN(c2nc(=O)n(-c3c(C)ccnc3C(C)C)c3nc(-c4c(O)cccc4F)c(F)cc23)C(C)C1
Output: 104

Task: Cool, now CC(=O)Nc1cccc(-n2c(=O)n(C3CC3)c(=O)c3c(Nc4ccc(I)cc4F)n(C)c(=O)c(C)c32)c1 + C=CC(=O)N1CCN(c2nc(OCC3CCCN3C)nc3c2CCN(c2cccc4cccc(C)c24)C3)CC1CC#N
Output: 114

Task: Cool, now Cn1ncnc1[C@H]1c2n[nH]c(=O)c3cc(F)cc(c23)N[C@@H]1c1ccc(F)cc1 + C=CC(=O)N1CCN(c2nc(OCC3CCCN3C)nc3c2CCN(c2cccc4cccc(C)c24)C3)CC1CC#N
Output: 100

* * *

Tested on: KRAS PDC tumor spheroids (HUVEC+MSC), viability
EXPERIMENT_NOTES: Anticancer human tumor 254851-301-R-J1-PDC cell line growth inhibition [KRAS2];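 also: spheroids exposed to compounds for seven days before readout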;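 as to viability, T/C: 100% = DMSO vehicle control luminescence of the spheroids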
REPORTED_CONDITIONS: second compound 3.16 µM; first compound 0.001 µM; stronger effect = lower value
Description: Multicellular complex tumor spheroid response to RAS pathway inhibitors in combination with a targeted agents in patient-derived cell lines with oncogenic KRAS variants from multiple cancer types A high-throughput screen of multi-cell type tumor spheroids was designed to identify active combinations of targeted small molecules and KRAS pathway inhibitors. […] Compounds. […] If the clinical Cmax for an agent had not been determined, the highest concentration tested was 10 microM. […]
# viability, T/C binned as bottom: < 60%; middle: ≥ 60% and < 90%; top: ≥ 90%

MOLECULE	ASSIGNED_CLASS
CC(C)n1nc(-c2ccc3oc(N)nc3c2)c2c(N)ncnc21 + C=CC(=O)N1CCN(c2nc(OCC3CCCN3C)nc3c2CCN(c2cccc4cccc(C)c24)C3)CC1CC#N	bottom

Task: The entry to classify is CN(C)C/C=C/C(=O)Nc1cc2c(Nc3ccc(F)c(Cl)c3)ncnc2cc1O[C@H]1CCOC1 + CC1OCC2(CCN(c3cnc(Sc4ccnc(N)c4Cl)c(N)n3)CC2)C1N ; which class holds it?
Output: middle

Task: Cool, now CC(=O)Nc1cccc(-n2c(=O)n(C3CC3)c(=O)c3c(Nc4ccc(I)cc4F)n(C)c(=O)c(C)c32)c1 + CNCc1ccccc1-c1csc(C(C)Nc2nc(C)nc3cc(OC)c(OC)cc23)c1
Output: bottom

Task: Cool, now CC(=O)Nc1cccc(-n2c(=O)n(C3CC3)c(=O)c3c(Nc4ccc(I)cc4F)n(C)c(=O)c(C)c32)c1 + CC1OCC2(CCN(c3cnc(Sc4ccnc(N)c4Cl)c(N)n3)CC2)C1N
Output: bottom

Task: Cool, now CC(=O)Nc1cccc(-n2c(=O)n(C3CC3)c(=O)c3c(Nc4ccc(I)cc4F)n(C)c(=O)c(C)c32)c1 + C=CC(=O)N1CCN(c2nc(OCC3CCCN3C)nc3c2CCN(c2cccc4cccc(C)c24)C3)CC1CC#N
Output: bottom

Task: Cool, now Cn1ncnc1[C@H]1c2n[nH]c(=O)c3cc(F)cc(c23)N[C@@H]1c1ccc(F)cc1 + CNCc1ccccc1-c1csc(C(C)Nc2nc(C)nc3cc(OC)c(OC)cc23)c1
Output: middle

Task: Cool, now CC(=O)Nc1cccc(-n2c(=O)n(C3CC3)c(=O)c3c(Nc4ccc(I)cc4F)n(C)c(=O)c(C)c32)c1 + COc1cc2nc(C)nc(NC(C)c3cc(N)cc(C(F)(F)F)c3)c2cc1OC1CCOC1
Output: middle

Task: Cool, now CC(C)n1nc(-c2ccc3oc(N)nc3c2)c2c(N)ncnc21 + COc1cc2nc(C)nc(NC(C)c3cc(N)cc(C(F)(F)F)c3)c2cc1OC1CCOC1
Output: top

Task: Cool, now CC(C)n1nc(-c2ccc3oc(N)nc3c2)c2c(N)ncnc21 + CC1OCC2(CCN(c3cnc(Sc4ccnc(N)c4Cl)c(N)n3)CC2)C1N
Output: middle

Task: Cool, now CN(C)C/C=C/C(=O)Nc1cc2c(Nc3ccc(F)c(Cl)c3)ncnc2cc1O[C@H]1CCOC1 + CNCc1ccccc1-c1csc(C(C)Nc2nc(C)nc3cc(OC)c(OC)cc23)c1
Output: middle

* * *

Recorded IC50, one value per entry.
System: KRAS PDC tumor spheroids (HUVEC+MSC), viability
EXPERIMENT_NOTES: Anticancer human tumor 254851-301-R-J1-PDC cell line growth inhibition [KRAS2];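 also: spheroids exposed to compounds for seven days before readout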
REPORTED_CONDITIONS: curve of first compound; second compound 0.1 µM
Value expressed in nM; do not type the unit.

These solved cases illustrate the format of a correct answer.
MOLECULE	SYSTEM_NAME	IC50 [nM]
CC1COCCN1c1cc(-c2ccnn2C)c2ccnc(-c3ccn[nH]3)c2n1 (stereo not drawn) + C=CC(=O)N1CCN(c2nc(OCC3CCCN3C)nc3c2CCN(c2cccc4cccc(C)c24)C3)CC1CC#N	KRAS PDC tumor spheroids (HUVEC+MSC), viability	300
CC(=O)Nc1cccc(-n2c(=O)n(C3CC3)c(=O)c3c(Nc4ccc(I)cc4F)n(C)c(=O)c(C)c32)c1 + C=CC(=O)N1CCN(c2nc(=O)n(-c3c(C)ccnc3C(C)C)c3nc(-c4c(O)cccc4F)c(F)cc23)C(C)C1	KRAS PDC tumor spheroids (HUVEC+MSC), viability	6.27
COc1cc(Nc2ncc3c(n2)-c2ccc(Cl)cc2C(c2c(F)cccc2OC)=NC3)ccc1C(=O)O + CC1OCC2(CCN(c3cnc(Sc4ccnc(N)c4Cl)c(N)n3)CC2)C1N	KRAS PDC tumor spheroids (HUVEC+MSC), viability	87.5

Now let's try a different one.
Task: Param item = COc1cc2nccc(Oc3ccc(NC(=O)C4(C(=O)Nc5ccc(F)cc5)CC4)cc3)c2cc1OC + CNCc1ccccc1-c1csc(C(C)Nc2nc(C)nc3cc(OC)c(OC)cc23)c1 ; retrieve measured IC50.
Output: 9900
